System: Mus musculus
ASSAY METHOD TEXT: Sedative activity in Swiss mouse assessed as reduction of locomotor activity at 10 umol/kg, ip after 40 mins
Assay type: organism-based
SETUP CONDITIONS: in vivo
PROPERTY LABEL: Activity

Recorded Activity, per entry:
> print(dat)
                            molecule.smiles  assayed.system      result
1  Cc1ccc(N2C(=O)c3cnc4c(c(C)nn4-c4ccccc4)c3C2=O)cc1    Mus musculus  Not Active
2  Cc1nn(C)c2ncc3c(c12)C(=O)N(c1ccccc1)C3=O    Mus musculus  Not Active
3  Cc1nn(C)c2ncc3c(c12)C(=O)N(c1ccc(Cl)cc1)C3=O    Mus musculus  Not Active
4  Cc1nn(C)c2ncc3c(c12)C(=O)N(c1ccc([N+](=O)[O-])cc1)C3=O    Mus musculus  Not Active
5  COc1ccc(N2C(=O)c3cnc4c(c(C)nn4C)c3C2=O)cc1    Mus musculus  Not Active
6  COc1ccc(N2C(=O)c3cnc4c(c(C)nn4-c4ccccc4)c3C2=O)cc1    Mus musculus      Active
7  Cc1nn(-c2ccccc2)c2ncc3c(c12)C(=O)N(c1ccc(Cl)cc1)C3=O    Mus musculus  Not Active
8  Cc1nn(C)c2ncc3c(c12)C(=O)N(c1ccc(C(=O)O)cc1)C3=O    Mus musculus  Not Active

For each of the items listed, what is its Activity?
1. Cc1nn(-c2ccccc2)c2ncc3c(c12)C(=O)N(c1ccccc1)C3=O
2. Cc1ccc(N2C(=O)c3cnc4c(c(C)nn4C)c3C2=O)cc1
3. Cc1nn(-c2ccccc2)c2ncc3c(c12)C(=O)N(c1ccc([N+](=O)[O-])cc1)C3=O
4. Cc1nn(-c2ccccc2)c2ncc3c(c12)C(=O)N(c1ccc(C(=O)O)cc1)C3=O

-- reply
1. Not Active
2. Not Active
3. Active
4. Not Active
